Molecular target: human androgen receptor (Homo sapiens, UniProt P10275)
Construct: expressed in transfected cells; host or cells: CHO cells, cell line CHO-AR-pMMTV-LUC 1G12-A5-CA
Assay: cell-based
Details: ant EC50, antiandrogenic activity, in the presence of 1 nM DHT
pEC50: −log10 of the molar value.
readout-label: pEC50

For COc1ccc2c(Sc3ccccc3[N+](=O)[O-])cn(Cc3cccc([N+](=O)[O-])c3)c2c1 [Compound 74] , write its pEC50.
< 5.00

For COc1ccc2c(Sc3ccccc3[N+](=O)[O-])cn(Cc3ccccc3[N+](=O)[O-])c2c1 [Compound 8] , write its pEC50.
< 5.00

For O=[N+]([O-])c1ccc2c(Sc3ccccc3[N+](=O)[O-])cn(Cc3cc(F)cc(F)c3)c2c1 [Compound 60] , write its pEC50.
< 5.00

---

Biological target: human androgen receptor (Homo sapiens, UniProt P10275)
Construct: expressed in transfected cells; host or cells: CHO cells, cell line CHO-AR-pMMTV-LUC 1G12-A5-CA
Sequence (P10275 1-920): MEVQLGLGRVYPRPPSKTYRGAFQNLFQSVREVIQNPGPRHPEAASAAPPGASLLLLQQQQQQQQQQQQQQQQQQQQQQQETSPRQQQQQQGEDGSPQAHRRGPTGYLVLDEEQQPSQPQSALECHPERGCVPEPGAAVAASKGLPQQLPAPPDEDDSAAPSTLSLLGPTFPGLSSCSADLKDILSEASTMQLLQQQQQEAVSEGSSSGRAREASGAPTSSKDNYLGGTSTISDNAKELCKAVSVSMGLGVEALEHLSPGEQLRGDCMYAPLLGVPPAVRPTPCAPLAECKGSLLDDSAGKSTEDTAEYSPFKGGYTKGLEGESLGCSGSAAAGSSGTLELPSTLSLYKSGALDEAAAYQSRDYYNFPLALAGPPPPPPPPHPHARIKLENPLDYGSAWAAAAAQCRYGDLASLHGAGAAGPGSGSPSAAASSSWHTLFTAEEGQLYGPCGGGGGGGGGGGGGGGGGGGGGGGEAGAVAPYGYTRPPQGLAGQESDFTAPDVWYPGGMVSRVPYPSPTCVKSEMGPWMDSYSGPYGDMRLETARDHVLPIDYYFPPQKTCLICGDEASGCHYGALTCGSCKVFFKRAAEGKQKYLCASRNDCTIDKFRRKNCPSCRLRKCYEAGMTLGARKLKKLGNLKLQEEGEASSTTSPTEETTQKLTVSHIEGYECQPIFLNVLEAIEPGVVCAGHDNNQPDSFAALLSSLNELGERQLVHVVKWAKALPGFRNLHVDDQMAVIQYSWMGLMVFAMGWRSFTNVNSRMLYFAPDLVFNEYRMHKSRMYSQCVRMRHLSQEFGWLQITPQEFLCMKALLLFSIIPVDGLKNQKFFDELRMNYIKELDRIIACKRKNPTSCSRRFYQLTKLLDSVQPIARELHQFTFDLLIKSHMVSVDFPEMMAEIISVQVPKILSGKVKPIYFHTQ
Assay: androgenic activity (EC50 and intrinsic activity), transactivation bioassay in CHO-AR-pMMTV-LUC cells (Table 4)
Assay type: cell-based
Conditions: ago EC50, androgenic activity
readout-label: EC50

For `COc1ccc2c(Sc3ccccc3[N+](=O)[O-])cn(Cc3cccc([N+](=O)[O-])c3C)c2c1` , write its EC50.
< 1000 nM

For `O=[N+]([O-])c1ccc2c(Sc3ccccc3[N+](=O)[O-])cn(Cc3cc(F)cc(F)c3)c2c1` , write its EC50.
< 5 nM

For `COc1ccc2c(Sc3ccccc3[N+](=O)[O-])cn(Cc3cccc([N+](=O)[O-])c3)c2c1` , write its EC50.
< 5 nM

For `COc1ccc2c(Sc3ccccc3[N+](=O)[O-])cn(Cc3ccccc3[N+](=O)[O-])c2c1` , write its EC50.
5 to 100 nM
